Assay protocol: AUC(0 to t) in Sprague-Dawley rat at 20 mg/kg, po measured up to 24 hrs by LC-MS/MS analysis
Type: ADME, organism-based
Test conditions: in vivo
Test readout: AUC(0-t) at 24 h (µg·h/mL)
Hi! Could you send only the number? It should be in µg·h/mL, unit omitted.

// query AUC(0-t) at 24 h for O=c1c(O)c(-c2ccc(O)cc2)oc2cc(O)cc(O)c12 ?
// result 234

----------
Assay protocol: Oral bioavailability in Sprague-Dawley rat at 5 mg/kg by LC-MS/MA analysis
Assay type: ADME, organism-based
Test conditions: in vivo
Test readout: bioavailability (%)
A number alone suffices; assume %.

// query Recorded bioavailability for O=c1c(O)c(-c2ccc(O)cc2)oc2cc(O)cc(O)c12 [KAEMPFEROL] , please?
// result 7

----------
Assay protocol: AUC(0 to t) in Sprague-Dawley rat at 5 mg/kg, po measured up to 24 hrs by LC-MS/MS analysis
Format: ADME, organism-based
Test conditions: in vivo
Test readout: AUC(0-t) at 24 h (µg·h/mL)
# output: bare number, implied unit µg·h/mL

// query Look up AUC(0-t) at 24 h: O=c1c(-c2ccc(O)cc2)coc2c([C@@H]3O[C@H](CO)[C@@H](O)[C@H](O)[C@H]3O)c(O)ccc12
// result 109

----------
Assay protocol: AUC(0 to t) in Sprague-Dawley rat at 300 mg/kg, po measured up to 24 hrs by LC-MS/MS analysis
Format: ADME, organism-based
Test conditions: in vivo
Test readout: AUC(0-t) at 24 h (µg·h/mL)
Give your result in µg·h/mL as a bare value.

// query Value lookup for AUC(0-t) at 24 h; key = O=C1c2cccc(O)c2C(=O)c2c(O)cc(CO)cc21
// result 42.8

----------
Assay protocol: Oral bioavailability in Sprague-Dawley rat at 20 mg/kg by LC-MS/MS analysis
Format: ADME, organism-based
Test conditions: in vivo
Test readout: bioavailability (%)
Write down the numeric answer in % and omit the unit.

// query What does the record list as bioavailability for O=c1c(O)c(-c2ccc(O)cc2)oc2cc(O)cc(O)c12 [KAEMPFEROL] ?
// result 2

----------
Assay protocol: Oral bioavailability in human at 2 microg/kg measured for 60 mins by LC-MS/MS analysis
Test conditions: in vivo, 0.002 mg/kg
Test readout: bioavailability at 1 h (%)
The reply should contain only the number, in %.

// query Any idea what its bioavailability at 1 h is? The compound is Cc1cccc([C@H](C)c2cnc[nH]2)c1C [DEXMEDETOMIDINE]
// result 15.6

----------
Assay protocol: Microsomal metabolic stability in Beagle dog liver microsomes assessed as half life […] by LC-MS/MS analysis
Type: ADME, Canis lupus familiaris, Microsome
Test readout: half-life (h)
Write the number in h without appending the unit.

// query Could you tell me which half-life is on file for C[C@@H]1C(=O)O[C@H]2[C@@H](O)C34[C@H]5C[C@@H](C(C)(C)C)C36[C@@H](OC(=O)[C@@H]6O)O[C@@]4(C(=O)O5)[C@@]12O (stereo partly specified) ?
// result 1

----------
Assay protocol: Metabolic stability in rat liver microsomes assessed as half life measured for 60 mins by LC-MS/MS analysis
Format: ADME, Microsome
Test readout: half-life

// query Request the reported half-life associated with Cc1cnc(-c2ccccc2C(C)C)nc1NCc1ccc(-n2ccnn2)cc1
// result 12 min

----------
Assay protocol: Metabolic stability in human liver microsome assessed as half life
Test conditions: liver microsomes
Test readout: half-life (h)
I only need the number, in h, no unit after it.

// query half-life lookup needed for Cc1cccc([C@H](C)c2cnc[nH]2)c1C , thanks.
// result 2

----------
Assay protocol: Toxicity in rat assessed as lethal dose
Test conditions: in vivo
Test readout: LD50
I'd appreciate it if you included the unit after the number.

// query # lookup: LD50 of O=c1c(O)c(-c2ccc(O)cc2)oc2cc(O)cc(O)c12
// result 3810 mg/kg

----------
Assay protocol: Acute toxicity in po dosed ICR mouse assessed as lethal dose
Type: organism-based
Test conditions: in vivo
Test readout: LD50 (mg/kg)
Reply numerically in mg/kg, unit not repeated.

// query Consider the compound shown here: COc1cc(/C=C/C(=O)O)ccc1O [FERULATE] What is its recorded LD50?
// result 3200

----------
Assay protocol: Oral bioavailability in Beagle dog at 3.6 mg/kgm measured for 24 hrs by LC-MS/MS analysis
Format: ADME, organism-based, Canis lupus familiaris
Test conditions: in vivo, dose 3.6 mg/kg
Test readout: bioavailability
Answer format: value, then unit.

// query Data request, read-out bioavailability, for C[C@@H]1C(=O)O[C@H]2[C@@H](O)C34[C@H]5C[C@@H](C(C)(C)C)C36[C@@H](OC(=O)[C@@H]6O)O[C@@]4(C(=O)O5)[C@@]12O (stereo partly specified)
// result 17%
